Experiment: Antitumor activity against mouse EAC cells allografted in Swiss albino mouse assessed as tumor growth inhibition at 75 mg/kg, po administered for 21 days measured 21 day post dose relative to control
Assay type: functional
Details: Ehrlich, 504 h, read-out: TGI
REPORTED_ENDPOINT: inhibition in vivo at 75 mg/kg (%)
Answer in %, number only, no unit symbol.

Consider the worked cases shown below.
CCN1C/C(=C\c2ccc(OC)cc2)C2=NN(c3nc(-c4ccc(Cl)cc4)cs3)C(c3ccc(OC)cc3)C2C1 (stereo unspecified) = 82
COc1ccc(/C=C2\CN(C)CC3C2=NN(c2nc(-c4ccc(Cl)cc4)cs2)C3c2ccc(OC)cc2)cc1 (stereo unspecified) = 70

Dear colleague, I am looking for the recorded inhibition in vivo at 75 mg/kg of the following molecule: COc1ccc(/C=C/C2=NN(C(N)=S)C(c3ccc(OC)cc3)C2)cc1 (stereo unspecified) 76

What value of inhibition in vivo at 75 mg/kg has been reported for the following molecule? COc1ccc(/C=C/C2=NN(c3nc(-c4ccccc4)cs3)C(c3ccc(OC)cc3)C2)cc1 (stereo unspecified) 65

Find the recorded inhibition in vivo at 75 mg/kg belonging to CCN1C/C(=C\c2ccc(OC)cc2)C2=NN(C(N)=S)C(c3ccc(OC)cc3)C2C1 (stereo unspecified) and report it. 77

Field request: inhibition in vivo at 75 mg/kg | item: COc1cc(/C=C2\CCCc3c2nc(N)c(C#N)c3-c2ccc(O)c(OC)c2)ccc1O 80

====

Test: Cytotoxicity against mouse EAC cells assessed as dead cells at 50 uM after 24 hrs by trypan blue dye exclusion method relative to control
Assay type: functional, Ehrlich
Entries and their Activity values follow.
# value in %; strip the unit string

Form field: reported Activity of COc1ccc(/C=C2\CCCc3c2nc(N)c(C#N)c3-c2ccc(OC)c(OC)c2)cc1OC 45.1

====

Experiment: Cytotoxicity against mouse EAC cells assessed as dead cells at 25 uM after 24 hrs by trypan blue dye exclusion method relative to control
Format: functional, Ehrlich
REPORTED_ENDPOINT: Activity (%)
Express your answer in %, writing the number without its unit.

I'd like to know its Activity. The compound in question is COc1ccc(/C=C2\CCCC3C2=NN(C2=NC(=O)/C(=C/c4ccc(Br)cc4)S2)C3c2ccc(OC)cc2)cc1 (stereo not drawn) 22

# input compound: CCN1C/C(=C\c2ccc(OC)cc2)C2=NN(c3nc(-c4ccc(Cl)cc4)cs3)C(c3ccc(OC)cc3)C2C1 (stereo not drawn) ; wanted: its Activity 98.3

Given COc1ccc(/C=C2\CN(C)CC3C2=NN(c2nc(-c4ccc(Cl)cc4)cs2)C3c2ccc(OC)cc2)cc1 (stereo not drawn) , state its recorded Activity. 29.2

Bench note: what Activity did COc1ccc(/C=C2\CCCc3c2nc(N)c(C#N)c3-c2ccc(OC)c(OC)c2)cc1OC show? 24.9

====

Test: Antioxidant activity assessed as inhibition of ABTS radical cation generation at 1 mg/ml by colorimetric method relative to control
Type: physicochemical
Label yes (1) when inhibition (INH) is at or above 80%; otherwise label no (0).

Record excerpt, results attached:
N#Cc1c(N)nc2c(c1-c1ccc(O)cc1)CCC/C2=C\c1ccc(O)cc1 = no (0)
COc1cc(/C=C2\CCCc3c2nc(N)c(C#N)c3-c2ccc(O)c(OC)c2)ccc1O = no (0)
COc1ccc(/C=C/C2=NN(c3nc(-c4ccccc4)cs3)C(c3ccc(OC)cc3)C2)cc1 (stereo not given) = no (0)
CCN1C/C(=C\c2ccc(OC)cc2)C2=NN(C(N)=S)C(c3ccc(OC)cc3)C2C1 (stereo not given) = yes (1)
COc1ccc(/C=C2\CCCC3C2=NN(C2=NC(=O)/C(=C/c4ccc(Br)cc4)S2)C3c2ccc(OC)cc2)cc1 (stereo not given) = no (0)
COc1cc(/C=C/C(=O)CC(=O)/C=C/c2ccc(O)c(OC)c2)ccc1O [CURCUMIN] = yes (1)
COc1ccc(/C=C2\CN(C)CC3C2=NN(c2nc(-c4ccc(Cl)cc4)cs2)C3c2ccc(OC)cc2)cc1 (stereo not given) = no (0)
COc1ccc(/C=C2\CCCc3c2nc(N)c(C#N)c3-c2ccc(OC)c(OC)c2)cc1OC = no (0)
CCN1C/C(=C\c2ccc(OC)cc2)C2=NN(c3nc(-c4ccc(Cl)cc4)cs3)C(c3ccc(OC)cc3)C2C1 (stereo not given) = yes (1)

We next turn to a different molecule, shown below.
Evaluate CCN1C/C(=C\c2ccc(OC)cc2)C2=NN(c3nc(-c4ccccc4)cs3)C(c3ccc(OC)cc3)C2C1 (stereo not given) : inhibition (INH) at minimum 80%? no (0)
